Data provenance: patent US11649245B2

# Tested on: HL60 cells
# METHOD NOTES: Antiproliferation activity on HL60 cells (CellTiter-Glo, 6 days)
# Format: cell-based
# CONDITION: Homo sapiens, HL-60, 144 h, incubated for 6 days
Structures can show the parent of a compound that is named as a salt.
MEASUREMENT LABEL: IC50
Your answer should be a number followed by the unit of measure.

Lab request: please report IC50 under test system HL60 cells for O=C(O)c1ccc(CN2CCC3(CC2)CC(N[C@@H]2C[C@H]2c2ccccc2)CO3)cn1 (stereo partly drawn) [Hydrochloride of the compound 20]
8.99 nM

Form entry - test system: HL60 cells; read-out: IC50; compound: c1ccc([C@@H]2C[C@H]2NC2COC3(CCN(Cc4ccc(-c5nn[nH]n5)cc4)CC3)C2)cc1 (stereo partly drawn) [Hydrochloride of the compound 24]
39.1 nM

Look up IC50 with HL60 cells for this compound: O=C(O)c1cnc(CN2CCC3(CC2)CC(N[C@@H]2C[C@H]2c2ccccc2)CO3)cn1 (stereo partly drawn) [Hydrochloride of the compound 18]
20.4 nM

// lookup IC50 | system=HL60 cells | key= O=C(O)CC1(N2CCC3(CC2)CC(N[C@@H]2C[C@H]2c2ccccc2)CO3)CNC1 (stereo partly drawn) [Hydrochloride of the compound 32]
0.55 nM

Record lookup: for HL60 cells, what IC50 belongs to O=C(O)c1ccc2cc(CN3CCC4(CC3)CC(N[C@@H]3C[C@H]3c3ccccc3)CO4)ccc2c1 (stereo partly drawn) [Hydrochloride of the compound 17] ?
0.78 nM

Lookup: IC50 / HL60 cells / O=C(O)c1ccc(CCN2CCC3(CC2)CC(N[C@@H]2C[C@H]2c2ccccc2)CO3)cc1 (stereo partly drawn) [Hydrochloride of the compound 19]
1.46 nM

###

# METHOD NOTES: In vivo pharmacokinetics in CD-1 mice
# CONDITION: male, CD-1, mouse, plasma, iv, 1 mg/kg, male CD-1 mice, IV 1 mg/kg; read-out: Half-life T1/2 (IV) (converted)
Structures can show the parent of a compound that is named as a salt.
Please respond with reported half-life for every item in the list.
Give the number; h is assumed, so skip it.

Please give the measured half-life for this compound: O=C(O)c1ccc(CN2CCC3(CC2)CC(N[C@@H]2C[C@H]2c2ccccc2)CO3)cn1 (stereo partly shown) [Hydrochloride of the compound 20]
0.905

Reported half-life for NC(=O)c1ccc(CN2CCC3(CC2)CC(N[C@@H]2C[C@H]2c2ccccc2)CO3)cc1 (stereo partly shown) [Hydrochloride of the compound 23] : what is it?
4.32

What value of half-life has been recorded for this entry: O=C(O)c1ccc(CN2CCC3(CC2)CC(N[C@@H]2C[C@H]2c2ccccc2)CO3)nc1 (stereo partly shown) [Hydrochloride of the compound 14]
0.874

Name the reported half-life value associated with the compound NC1(C(=O)N2CCC3(CC2)CC(N[C@@H]2C[C@H]2c2ccccc2)CO3)CC1 (stereo partly shown) [Hydrochloride of the compound 34]
1.39

###

Record form. Attribute: bioavailability. Fill in for each entry.
# METHOD NOTES: In vivo pharmacokinetics in CD-1 mice
# CONDITION: male, CD-1, mouse, plasma, po, 2 mg/kg, male CD-1 mice, oral 2 mg/kg vs intravenous 1 mg/kg; read-out: Bioavailability F
Where a name gives a salt, the structure may show the parent alone.
The answer is to be given in %; state only the numeric part.

Return reported bioavailability; argument: O=C(O)c1ccc(CN2CCC3(CC2)CC(N[C@@H]2C[C@H]2c2ccccc2)CO3)cn1 (some centres unmarked) [Hydrochloride of the compound 20]
29

Quick one: bioavailability of O=C(O)c1ccc(CN2CCC3(CC2)CC(N[C@@H]2C[C@H]2c2ccccc2)CO3)cc1 (some centres unmarked) [Hydrochloride of the compound 6] ?
33.2

Could you tell me which bioavailability is on file for NC(=O)c1ccc(CN2CCC3(CC2)CC(N[C@@H]2C[C@H]2c2ccccc2)CO3)cc1 (some centres unmarked) [Hydrochloride of the compound 23] ?
37.2

// returns reported bioavailability for input NC1(C(=O)N2CCC3(CC2)CC(N[C@@H]2C[C@H]2c2ccccc2)CO3)CC1 (some centres unmarked) [Hydrochloride of the compound 34]
58.3

What does the data say about its bioavailability? Entry: O=C(O)c1ccc(CN2CCC3(CC2)CC(N[C@@H]2C[C@H]2c2ccccc2)CO3)nc1 (some centres unmarked) [Hydrochloride of the compound 14]
28.7
